Data credit: paper PMC4809600

Recorded Percentage intact, CWE + PIC 48h by entry
- ASSAY PROCEDURE: Stability in CWE with protease inhibitor cocktail (PIC), capillary zone electrophoresis
- Type: in vitro ADME, human
- CONDITION SET: 1 mg/ml in PBS mixed 1:1 with CWE (1 mg/ml protein, pool of 5 donors) in PBS containing PIC (final 1:140 v/v), 37°C, 48 h; CZE, ratio to imidazole, 0 h = 100%; experiment 1 of 3
Where no end group is shown, it is not given here.
Expressed in %, but write only the number.

q: I would be grateful if you could share the reported Percentage intact, CWE + PIC 48h for DSHEKRHHGYRRKFHEKHHSHREFPFYGDYGSNYLYDN [Hst1] .
a: 73.7424

q: I would be grateful if you could share the reported Percentage intact, CWE + PIC 48h for cyclo(DNLPETGGDSHEKRHHGYRRKFHEKHHSHREFPFYGDYGSNYLY) [cHst1] .
a: 68.226

q: I would be grateful if you could share the reported Percentage intact, CWE + PIC 48h for SHREFPFYGDYGS [mad-Hst1] .
a: 76.9205

Continuing:
q: I would be grateful if you could share the reported Percentage intact, CWE + PIC 48h for RKFHEKHHSHREFPFYGDYGSNYLYDN [Hst2] .
a: 70.9832

---

- ASSAY PROCEDURE: Stability in chronic wound extracts (CWE), capillary zone electrophoresis
- Type: in vitro ADME, human
- CONDITION SET: 1 mg/ml in PBS mixed 1:1 with CWE (1 mg/ml protein, pool of 5 donors) in PBS, 37°C, 96 h; CZE, UV 200 nm, ratio to imidazole, 0 h = 100%; experiment 3 of 3
- Method: Debridement tissue was obtained from chronic ulcers of 15 patients with therapy resistant (arterio-venous) leg ulcers, according to procedures described earlier. […] Total protein content of the supernatant was measured using the BioRad Protein Assay (BioRad Laboratories, Hercules, California, USA) essentially as described by the supplier. […]
Where no end group is shown, it is not given here.
Recorded Percentage intact, CWE 96h by entry
Expressed in %, but write only the number.

Known Percentage intact, CWE 96h results, listed for orientation:
q: I would be grateful if you could share the reported Percentage intact, CWE 96h for cyclo(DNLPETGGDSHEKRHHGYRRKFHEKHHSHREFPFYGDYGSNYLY) [cHst1] .
a: 11.1869

q: I would be grateful if you could share the reported Percentage intact, CWE 96h for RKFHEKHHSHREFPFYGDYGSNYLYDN [Hst2] .
a: 0.0001

q: I would be grateful if you could share the reported Percentage intact, CWE 96h for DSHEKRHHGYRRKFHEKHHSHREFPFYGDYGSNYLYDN [Hst1] .
a: 0.0001

Now for the substance whose Percentage intact, CWE 96h we want.
q: I would be grateful if you could share the reported Percentage intact, CWE 96h for SHREFPFYGDYGS [mad-Hst1] .
a: 1.322

---

Recorded Percentage intact, CWE 72h by entry
- ASSAY PROCEDURE: Stability in chronic wound extracts (CWE), capillary zone electrophoresis
- Format: in vitro ADME, human
- CONDITION SET: 1 mg/ml in PBS mixed 1:1 with CWE (1 mg/ml protein, pool of 5 donors) in PBS, 37°C, 72 h; CZE, UV 200 nm, ratio to imidazole, 0 h = 100%; experiment 2 of 3
Where no end group is shown, it is not given here.
Expressed in %, but write only the number.

Known Percentage intact, CWE 72h results, listed for orientation:
q: I would be grateful if you could share the reported Percentage intact, CWE 72h for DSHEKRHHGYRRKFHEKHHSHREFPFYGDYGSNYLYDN [Hst1] .
a: 0.0001

q: I would be grateful if you could share the reported Percentage intact, CWE 72h for SHREFPFYGDYGS [mad-Hst1] .
a: 2.89

q: I would be grateful if you could share the reported Percentage intact, CWE 72h for cyclo(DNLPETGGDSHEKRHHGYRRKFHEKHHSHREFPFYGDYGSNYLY) [cHst1] .
a: 21.8694

Now for the substance whose Percentage intact, CWE 72h we want.
q: I would be grateful if you could share the reported Percentage intact, CWE 72h for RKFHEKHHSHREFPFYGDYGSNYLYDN [Hst2] .
a: 0.0001
